Target: Renin (Homo sapiens) (UniProt P00797)
Sequence (whole entry): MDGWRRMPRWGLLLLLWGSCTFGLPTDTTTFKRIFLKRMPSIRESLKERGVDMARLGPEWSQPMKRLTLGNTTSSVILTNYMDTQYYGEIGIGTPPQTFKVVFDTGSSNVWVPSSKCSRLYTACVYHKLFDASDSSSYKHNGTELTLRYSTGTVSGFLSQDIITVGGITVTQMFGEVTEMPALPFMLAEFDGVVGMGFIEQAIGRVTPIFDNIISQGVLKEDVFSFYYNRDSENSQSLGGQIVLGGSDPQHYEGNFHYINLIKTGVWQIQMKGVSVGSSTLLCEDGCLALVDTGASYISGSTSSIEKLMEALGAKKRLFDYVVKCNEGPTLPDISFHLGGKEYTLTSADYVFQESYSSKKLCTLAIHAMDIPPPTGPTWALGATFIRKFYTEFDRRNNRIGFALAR
Assay: The compound was tested for inhibition of human renal renin at the concentration of 10e-6 M
Form field: inhibition (one value per entry).
State the result as a value with its unit after it.

>  <Molecule>
CC(C)CC[C@@H](O)[C@@H](CC(C)C)NC(=O)[C@H](Cc1c[nH]cn1)NC(=O)[C@H](Cc1cccc2ccccc12)NC(=O)OC(C)(C)C

>  <Observed>
93%

$$$$

Reported inhibition of `CC(C)C[C@@H](NC(=O)[C@H](Cc1c[nH]cn1)NC(=O)[C@H](Cc1ccccc1)NC(=O)OC(C)(C)C)[C@H](O)CSC(C)C` : 92%

Please fill in: inhibition reported for `CC(C)C[C@@H](NC(=O)[C@H](Cc1c[nH]cn1)NC(=O)[C@H](Cc1ccccc1)NC(=O)OC(C)(C)C)[C@H](O)CS(=O)(=O)C1CCCCC1` = 92%

Kindly note the recorded inhibition for `CC(C)CC[C@@H](O)[C@@H](CC(C)C)NC(=O)[C@H](Cc1c[nH]cn1)NC(=O)[C@H](Cc1ccc2ccccc2c1)NC(=O)OC(C)(C)C` , which is 87%

---

Biological target: UniProtKB P00797
Assay: Inhibition of human renal renin at the concentration of 10e-5 M.
Assay Readout: inhibition (%)
Enter your answer as a number in %; do not include the unit.

// below: answered compounds
>  <Molecule>
CC(C)C[C@@H](NC(=O)[C@H](C)NC(=O)[C@H](Cc1ccccc1)NC(=O)OC(C)(C)C)[C@H](O)CNC(C)C

>  <Assay Readout>
inhibition

>  <U>
%

>  <Observed>
5

$$$$
>  <Molecule>
CC(C)CC[C@@H](O)[C@@H](CC(C)C)NC(=O)[C@H](Cc1c[nH]cn1)NC(=O)[C@H](Cc1ccccc1)NC(=O)OC(C)(C)C

>  <Assay Readout>
inhibition

>  <U>
%

>  <Observed>
89

$$$$

Item: `CC(C)C[C@@H](NC(=O)[C@H](C)NC(=O)[C@H](Cc1ccccc1)NC(=O)OC(C)(C)C)[C@H](O)CSC1CCCCC1` | inhibition: 94

For `CC(C)CCSC[C@@H](O)[C@@H](CC(C)C)NC(=O)[C@H](C)NC(=O)[C@H](Cc1ccccc1)NC(=O)OC(C)(C)C` the compound record lists inhibition as 93

Query `CC(C)C[C@@H](NC(=O)[C@H](C)NC(=O)[C@H](Cc1ccccc1)NC(=O)OC(C)(C)C)[C@H](O)CSCCCc1ccccc1` yields inhibition of 88

The compound identified as `CC(C)C[C@@H](NC(=O)[C@H](C)NC(=O)[C@H](Cc1ccccc1)NC(=O)OC(C)(C)C)[C@H](O)CSc1ccccc1` registered its inhibition at 56

Entry under test: `CC(C)C[C@@H](NC(=O)[C@H](Cc1ccccc1)NC(=O)[C@H](Cc1ccccc1)NC(=O)OC(C)(C)C)[C@H](O)CSc1ccccc1` . Its inhibition was 48

Values compiled from ChEMBL document CHEMBL1123909.
